biological target: Calmodulin-1 (Homo sapiens) (UniProt P0DP23); experiment: calcium-bound CALM1 binders on microarrays, profiling panel, artefact control for SMM control-protein annotation, biochemical, small-molecule microarray, Cy5-labelled CALM1, plus calcium (AID 1112); conditions: Cy5-CALM1 binding fluorescence, higher = more signal;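 also: score merges spot fluorescence with signal to noise from triplicate slides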
Values of composite z-score greater than or equal to -0.6 map to 1 (yes); values below map to 0 (no).

[
  {
    "molecule": "CCOC(=O)[C@H](CC(C)C)NC(=O)CCC1CC(OC(=O)NCc2ccc3c(c2)OCO3)CC2(CCCC(COC(=O)NCCc3ccc(Cl)cc3)O2)O1 (stereo partly specified)",
    "discrete-label": "1 (yes)"
  },
  {
    "molecule": "O=C1CCCC=C1C(O)C1CCCCC1 (stereo unspecified)",
    "discrete-label": "1 (yes)"
  },
  {
    "molecule": "O=C1[C@H]2[C@H]3[C@H](O)[C@H](O)CC(=NOC[C@@H](O)COCc4ccco4)[C@@H]3CC[C@H]2C(=O)N1Cc1ccccc1",
    "discrete-label": "0 (no)"
  },
  {
    "molecule": "O=C1[C@H]2CCn3c(=O)n(-c4ccccc4)c(=O)n3[C@H]2[C@H](O)[C@@H]2O[C@H]12",
    "discrete-label": "1 (yes)"
  },
  {
    "molecule": "O=C1C2=CC[C@H]3C(=O)N(C4CCCCC4)C(=O)[C@H]3[C@H]2[C@H](O)[C@@H]2O[C@H]12",
    "discrete-label": "0 (no)"
  },
  {
    "molecule": "CCN1C(=O)[C@H]2[C@H]3[C@H](O)[C@H](O)CC(=NOC(C)CN4CCCc5nc(C)c(C)cc54)[C@@H]3CC[C@H]2C1=O (stereo partly specified)",
    "discrete-label": "0 (no)"
  },
  {
    "molecule": "C[C@H]1CC[C@@H](C(=O)O)N[C@@H]1c1cccc(N2CCCC2=O)c1",
    "discrete-label": "1 (yes)"
  },
  {
    "molecule": "COC(OC)[C@@H](C)[C@H](OC)[C@@H](C)[C@H](OC)c1ccccc1",
    "discrete-label": "0 (no)"
  },
  {
    "molecule": "COC(=O)C1=C(C)N(Cc2ccccc2)C2=C3C(=O)OCC[C@@H]3[C@@](O)(C(=O)OC)C(=O)N2[C@@H]1c1ccccc1",
    "discrete-label": "0 (no)"
  },
  {
    "molecule": "CCOC(=O)[C@H](Cc1ccccc1)NC(=O)CCC1CC(OC(=O)NCc2ccc3c(c2)OCO3)CC2(CCCC(COC(=O)NCCCN3CCCC3=O)O2)O1 (stereo partly specified)",
    "discrete-label": "1 (yes)"
  },
  {
    "molecule": "C#CCCCON=C1C[C@@H](O)[C@@H](O)[C@@H]2[C@@H]3C(=O)N(C[C@@H]4CCCO4)C(=O)[C@@H]3CC[C@H]12",
    "discrete-label": "1 (yes)"
  },
  {
    "molecule": "CC(=O)OC[C@H]1O[C@H](CCON=C(C)CCN2CCCc3nc(C)c(C)cc32)C=C[C@@H]1OC(C)=O",
    "discrete-label": "0 (no)"
  },
  {
    "molecule": "Cc1ccc2[nH]c3nc(CCCn4ccnc4-c4ccccc4)nnc3c2c1",
    "discrete-label": "0 (no)"
  },
  {
    "molecule": "O=C1C2=CC[C@H]3C(=O)N(Cc4ccccc4)C(=O)[C@H]3[C@H]2[C@H](O)[C@@H]2O[C@H]12",
    "discrete-label": "0 (no)"
  },
  {
    "molecule": "CC(C)(C)N1C(=O)[C@H]2[C@H]3[C@H](O)[C@H](O)CC(=NNC(=O)OCc4ccccc4)[C@@H]3CC[C@H]2C1=O",
    "discrete-label": "1 (yes)"
  }
]

---

assay: COS7 lysate on small-molecule microarray, probe aHis, 635 nm (AID 1123); details: COS7 cell lysate, fluorescence, higher = more signal;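 also: z-score combines 667nm fluorescence intensity with signal-to-noise per printed compound spot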
Values of composite z-score greater than or equal to 0.6 map to MET; values below map to NOT MET.

[
  {
    "compound": "CC(=O)OC[C@H]1O[C@H](CC=NOC(C)CN2CCCc3nc(C)c(C)cc32)C=C[C@@H]1OC(C)=O (stereo not given in full)",
    "discrete-label": "NOT MET"
  },
  {
    "compound": "CC(C)(C)N1C(=O)[C@H]2[C@H]3[C@H](O)[C@H](O)CC(=NOC[C@@H](O)COCc4ccco4)[C@H]3CC[C@H]2C1=O",
    "discrete-label": "NOT MET"
  },
  {
    "compound": "CCOC(=O)[C@H](CC(C)C)NC(=O)CCC1CC(OC(=O)NCc2ccc3c(c2)OCO3)CC2(CCCC(COC(=O)NCc3ccccc3)O2)O1 (stereo not given in full)",
    "discrete-label": "MET"
  },
  {
    "compound": "COc1ccc(O[C@H]2C=C[C@@H](c3ccccc3)O[C@@H]2CON=C2c3cc(OC)ccc3O[C@H](c3cccc(OC)c3)[C@H]2O)cc1",
    "discrete-label": "NOT MET"
  },
  {
    "compound": "CC(=O)OC[C@H]1O[C@@H](ON=C(C)CCC(=O)OC[C@H]2O[C@H](C#Cc3ccccc3)C=C[C@@H]2Oc2ccc(C)cc2)[C@H](OC(C)=O)[C@@H](OC(C)=O)[C@@H]1OC(C)=O",
    "discrete-label": "MET"
  },
  {
    "compound": "COc1ccc(OC[C@@H](CO)OC)cc1",
    "discrete-label": "NOT MET"
  },
  {
    "compound": "COc1ccc(COC(=O)NN=C2C[C@@H](O)[C@@H](O)[C@@H]3[C@@H]4C(=O)N([C@@H](C)c5ccccc5)C(=O)[C@@H]4CC[C@@H]23)cc1",
    "discrete-label": "NOT MET"
  },
  {
    "compound": "CC1(C)O[C@H]2O[C@H]([C@H](O)CON=C3[C@H]4CCn5c(=O)n(-c6ccccc6)c(=O)n5[C@H]4[C@H](O)[C@@H]4O[C@H]34)[C@H](O)[C@H]2O1",
    "discrete-label": "NOT MET"
  },
  {
    "compound": "COC(=O)CC=C[C@@H](C)[C@@H](C=NOC[C@@H](C)[C@H](OCc1ccccc1)C(C)C)OC",
    "discrete-label": "NOT MET"
  },
  {
    "compound": "CC(C)CN1CCc2nc(-c3ccccc3)c3c(c2C1)CO[C@@H](C)C3",
    "discrete-label": "MET"
  },
  {
    "compound": "CC(=O)OC[C@H]1O[C@H](CC=NOCC[C@@H]2C=C[C@H](OC(C)=O)[C@@H](COC(C)=O)O2)C=C[C@@H]1OC(C)=O",
    "discrete-label": "NOT MET"
  },
  {
    "compound": "COC(=O)[C@@H]1CC[C@H](C)[C@@H](c2ccc(Br)cc2)N1C(=O)C(F)(F)F",
    "discrete-label": "NOT MET"
  },
  {
    "compound": "CCOC(=O)[C@H](CC(C)C)NC(=O)CCC1CC(OC(=O)NCc2ccc3c(c2)OCO3)CC2(CCCC(COC(=O)NCCC(C)C)O2)O1 (stereo not given in full)",
    "discrete-label": "NOT MET"
  },
  {
    "compound": "COc1ccc(O[C@H]2C=C[C@@H](C#Cc3ccccc3)O[C@@H]2CO)cc1",
    "discrete-label": "MET"
  },
  {
    "compound": "CCOC(=O)[C@H](Cc1ccccc1)NC(=O)CCC1CC(OC(=O)NCc2cccc3ccccc23)CC2(CCCC(COC(=O)NCc3ccc4c(c3)OCO4)O2)O1 (stereo not given in full)",
    "discrete-label": "MET"
  },
  {
    "compound": "COC(=O)[C@H](C)NC(=O)CCC1CC(OC(=O)NCc2cccc3ccccc23)CC2(CCCC(COC(=O)NCc3ccccc3)O2)O1 (stereo not given in full)",
    "discrete-label": "MET"
  },
  {
    "compound": "CC(CCN1CCCc2nc(C)c(C)cc21)=NO[C@H](C)c1cn([C@H](CO)Cc2ccccc2)nn1",
    "discrete-label": "NOT MET"
  },
  {
    "compound": "COC(=O)[C@H](C)NC(=O)CC=C[C@@H](C)[C@@H]1C=C[C@H](O)[C@@H](CO)O1",
    "discrete-label": "NOT MET"
  },
  {
    "compound": "C[C@@H]1CC[C@H]2C(=O)N3[C@@H](CC[C@@H](C)[C@@H]3c3ccc(Br)cc3)C(=O)N2[C@H]1c1ccc(Br)cc1",
    "discrete-label": "NOT MET"
  },
  {
    "compound": "CC(=O)OC[C@H]1O[C@H](CCON=C(C)C)C=C[C@@H]1OC(C)=O",
    "discrete-label": "NOT MET"
  },
  {
    "compound": "COC(=O)CC=C[C@@H](C)[C@@H](C=NOC(C)CN1CCCc2nc(C)c(C)cc21)NS(=O)(=O)c1ccc(C)cc1 (stereo not given in full)",
    "discrete-label": "MET"
  },
  {
    "compound": "COCC#Cc1ccc([C@@H]2N[C@H](C(=O)O)CC[C@H]2C)cc1",
    "discrete-label": "NOT MET"
  },
  {
    "compound": "CCOC(=O)CCN1C(=O)[C@H]2[C@H]3[C@H](O)[C@H](O)CC(=NOCC(C)C)[C@@H]3CC[C@H]2C1=O",
    "discrete-label": "NOT MET"
  },
  {
    "compound": "COc1ccc(O[C@H]2C=C[C@@H](c3ccccc3)O[C@@H]2COC(=O)NCc2cccc3ccccc23)cc1",
    "discrete-label": "NOT MET"
  },
  {
    "compound": "CO[C@H]1COC(=O)CC=C[C@@H](C)COC(=O)[C@H]2CCCN2C(=O)CC=C[C@H]1C",
    "discrete-label": "NOT MET"
  },
  {
    "compound": "O=C1[C@H]2[C@H]3[C@H](O)[C@H](O)CC(=NOC[C@@H](O)COCc4ccco4)[C@@H]3CC[C@H]2C(=O)N1Cc1ccccc1",
    "discrete-label": "MET"
  },
  {
    "compound": "CC(C)=CCCC(C)=CCON=C1C[C@@H](O)[C@@H](O)[C@@H]2[C@@H]3C(=O)N([C@@H](C)c4ccccc4)C(=O)[C@@H]3CC[C@@H]12",
    "discrete-label": "NOT MET"
  },
  {
    "compound": "COc1ccc(COC(=O)NN=C2C[C@@H](O)[C@@H](O)[C@@H]3[C@@H]4C(=O)N(C(C)(C)C)C(=O)[C@@H]4CC[C@@H]23)cc1",
    "discrete-label": "MET"
  },
  {
    "compound": "COC(=O)CC=C[C@@H](C)[C@@H](C=NOC(C)CN1CCCCc2nc(C)c(C)cc21)NS(=O)(=O)c1ccc(C)cc1 (stereo not given in full)",
    "discrete-label": "NOT MET"
  }
]
